Let's go through some recorded IC50 values for JAK3 (Homo sapiens (Human), UniProt P52333) together.
Counter-ions that a name gives are not always drawn.
Parameter: IC50 (nM)

- Molecule: "CN(c1ncccc1CNc1nc(-c2cc(F)c(O)cc2CC(F)(F)F)cc2[nH]nc(C(N)=O)c12)S(C)(=O)=O"
  Test target: "JAK3 (Homo sapiens (Human), UniProt P52333)"
  Parameter: "IC50"
  Value reported: 39.5
- Molecule: "CNC(=O)c1n[nH]c2cc(-c3cc(F)c(O)cc3C3CC3)nc(NCc3cccnc3N(C)S(C)(=O)=O)c12"
  Test target: "JAK3 (Homo sapiens (Human), UniProt P52333)"
  Parameter: "IC50"
  Value reported: 248
- Molecule: "CNC(=O)c1n[nH]c2cc(-c3cc(F)c(O)cc3CC(F)(F)F)nc(NCc3ccccc3N(C)S(=O)(=O)c3cccnc3)c12"
  Test target: "JAK3 (Homo sapiens (Human), UniProt P52333)"
  Parameter: "IC50"
  Value reported: 253

[I] Oc1cc(CC(F)(F)F)c(-c2nc(NCCC3CC3)c3cn[nH]c3n2)cc1F
[II] CCN(c1ccc(O)cc1CNc1nc(-c2cc(F)c(O)cc2CC(F)(F)F)cc2[nH]nc(C(=O)NC)c12)S(C)(=O)=O
Task item: Consider entries I and II . Which has the numerically lower IC50? # respond with the chosen item's label
Reply: II

[I] CCN(c1ccccc1CNc1nc(-c2cc(F)c(O)cc2CC(F)(F)F)nc2[nH]nc(C(=O)NC)c12)S(C)(=O)=O
[II] CN(c1ccccc1CNc1nc(-c2cc(F)c(O)cc2CC(F)(F)F)cc2[nH]nc(C(N)=O)c12)S(C)(=O)=O
[III] CN(c1ccccc1CNCc1nc(-c2cc(F)c(O)cc2CC(F)(F)F)cc2[nH]ncc12)S(C)(=O)=O
[IV] CCc1cc(O)c(F)cc1-c1cc2[nH]ncc2c(NCc2c(F)cccc2N(C)S(C)(=O)=O)n1 [Example 134, hydrochloride]
Task item: Reorder: IC50, max to min. Answer by listing the labels in the order asked for.
Reply: I, II, III, IV

# credit: patent US9518052B2
